GI50 by entry:
test system: HCC 2998; assay: NCI tumour cell line growth inhibition, 48 h
Active and inactive are the calls of the source. Rule as the data show it: active = GI50 up to about 1.1 µM and inactive = higher.

compound	test-system	GI50
NS(=O)(=O)c1nnc(NC(=O)c2ccccc2)s1	HCC 2998	> 100 µM (inactive)
CC(=O)/C(=C/n1c(=S)sc2ccccc21)C(=O)Nc1ccccc1C	HCC 2998	> 100 µM (inactive)
COc1ccc(/C=c2/sc3n(c2=O)C(c2ccccc2)C2(O)CCCCC2N=3)cc1 (centres undefined)	HCC 2998	> 12.5 µM (inactive)
COc1ccc(-c2nc3c(nc2-c2ccc(OC)cc2)N(C)S(=O)(=O)N=C3N)cc1	HCC 2998	35.6 µM (inactive)
